System: Escherichia coli TOP10
Experiment: shrunken log2 fold change of peptide-encoding DNA abundance (4.5 h post-induction vs induction); higher = less antimicrobial activity (less host growth inhibition)
Conditions: time post-induction: 4.5 h; library: site-saturation at positions 5, 18, 19, 20
// bucketize shrunken log2 fold change: bucket A = under -0.03, bucket B = from -0.03 up to 0.2, bucket C = 0.2 and over

Challenge: Hi, small favor: classify RRIRFRPPRLPRPRPRPNVVPRP by its shrunken log2 fold change when you get a moment.
Response given: bucket A

Challenge: Okay, and RRIRRRPPRLPRPRPRPAGTPRP ?
Response given: bucket A

Challenge: RRIRHRPPRLPRPRPRPGITPRP , same question.
Response given: bucket A

Challenge: Do the same for RRIRMRPPRLPRPRPRPMRKPRP please
Response given: bucket C

Challenge: Another sequence to look at: RRIRPRPPRLPRPRPRPDWDPRP
Response given: bucket B

Challenge: // query: RRIRARPPRLPRPRPRPNRNPRP
Response given: bucket A

Challenge: Continue with RRIRDRPPRLPRPRPRPCMHPRP
Response given: bucket B

Challenge: Check RRIRHRPPRLPRPRPRPACAPRP too.
Response given: bucket C

Challenge: Same read-out for RRIRSRPPRLPRPRPRPFWQPRP ?
Response given: bucket C

Challenge: Moving on to the next sequence: RRIRDRPPRLPRPRPRPRLSPRP
Response given: bucket C

Challenge: Could you do the same for RRIRVRPPRLPRPRPRPLGTPRP , please?
Response given: bucket B

Challenge: Entry to check: RRIRPRPPRLPRPRPRPMGRPRP
Response given: bucket B

Challenge: What about this sequence? RRIRDRPPRLPRPRPRPISSPRP
Response given: bucket B

Challenge: Param item: RRIRDRPPRLPRPRPRPNQCPRP
Response given: bucket A

---

Test system: Escherichia coli TOP10;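 also: peptides expressed intracellularly from a pBAD plasmid library in pooled LB shake-flask culture, induced with 0.3% L-arabinose, DNA abundance read by NGS, three biological replicates, DESeq2 with apeglm shrinkage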
Assay: shrunken log2 fold change of peptide-encoding DNA abundance (4.5 h post-induction vs induction); higher = less antimicrobial activity (less host growth inhibition)
Settings: time post-induction: 4.5 h; library: site-saturation at positions 5, 18, 19, 20
Use -0.004 as the dividing line for shrunken log2 fold change, with the line itself on the label 1 side and lower values as label 0.

Challenge: Determine whether measured shrunken log2 fold change meets or exceeds -0.004 for RRIRTRPPRLPRPRPRPNRIPRP
Response given: label 0

Challenge: For RRIRVRPPRLPRPRPRPSHNPRP then?
Response given: label 0

Challenge: Same for RRIRARPPRLPRPRPRPFQPPRP
Response given: label 1

Challenge: Cool, now RRIRMRPPRLPRPRPRPWLWPRP
Response given: label 1

Challenge: And the next one, RRIRVRPPRLPRPRPRPALQPRP ?
Response given: label 1

Challenge: Quick one: RRIRQRPPRLPRPRPRPHQLPRP
Response given: label 1

Challenge: And for RRIRNRPPRLPRPRPRPEKCPRP ?
Response given: label 0

Challenge: Query RRIRPRPPRLPRPRPRPKWKPRP next
Response given: label 1

Challenge: Next: RRIRTRPPRLPRPRPRPEKRPRP
Response given: label 0

Challenge: Please answer likewise for RRIRRRPPRLPRPRPRPIQNPRP
Response given: label 1

Challenge: Follow-up entry: RRIRARPPRLPRPRPRPKDVPRP
Response given: label 1

Challenge: Do the same for RRIRFRPPRLPRPRPRPWQSPRP please
Response given: label 1

Challenge: Subsequent entry: RRIRGRPPRLPRPRPRPAHRPRP
Response given: label 1

Challenge: Consider next the sequence RRIRERPPRLPRPRPRPHAKPRP in the same way.
Response given: label 1

Challenge: For RRIRRRPPRLPRPRPRPMVKPRP then?
Response given: label 1
